target: Cytochrome P450 2C19 (Homo sapiens, UniProt P33261); assay: Inhibition of CYP2C19 in human hepatocytes
Sequence (P33261 whole entry): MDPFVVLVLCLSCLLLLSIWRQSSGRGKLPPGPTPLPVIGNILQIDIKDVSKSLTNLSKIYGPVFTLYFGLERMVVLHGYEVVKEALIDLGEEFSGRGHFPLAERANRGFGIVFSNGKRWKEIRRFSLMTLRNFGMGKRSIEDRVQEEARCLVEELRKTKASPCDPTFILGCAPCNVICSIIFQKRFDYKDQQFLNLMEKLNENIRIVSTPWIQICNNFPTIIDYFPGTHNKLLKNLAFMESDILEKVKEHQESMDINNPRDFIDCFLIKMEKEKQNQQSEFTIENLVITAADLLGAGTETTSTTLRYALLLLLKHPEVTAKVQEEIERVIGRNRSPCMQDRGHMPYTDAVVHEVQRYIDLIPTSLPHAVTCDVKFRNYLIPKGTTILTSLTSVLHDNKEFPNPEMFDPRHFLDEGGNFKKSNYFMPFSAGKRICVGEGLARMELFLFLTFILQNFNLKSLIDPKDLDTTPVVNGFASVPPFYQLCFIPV

COMPOUND	IC50
COc1cc2c(cc1OC)C(=O)C(CC1(F)CCN(Cc3ccccc3F)CC1)C2 (stereo unspecified)	> 30 µM

* * *

assay: Terminal half life in human plasma at 2 mg, po; assay type: ADME, cell-free; conditions: read-out: beta t1/2 (converted)
PROPERTY_NAME: half-life (h)

MOLECULE	MEASURED_VALUE
COc1cc2c(cc1OC)C(=O)C(CC1(F)CCN(Cc3ccccc3F)CC1)C2 (stereo unspecified)	20.7

* * *

assay: MRT (0 to infinity) in Beagle dog at 0.25 mg/kg, iv; type: ADME, organism-based, Canis lupus familiaris; settings: in vivo
PROPERTY_NAME: MRT inf (h)

COMPOUND	MEASURED_VALUE
COc1cc2c(cc1OC)C(=O)C(CC1(F)CCN(Cc3ccccc3F)CC1)C2 (stereo unspecified)	23.6

Ref: ChEMBL document CHEMBL4813953
